- target-system: human Cav3.2 (Homo sapiens, UniProt O95180)
- Construct: host or cells: HEK 293
- Sequence (O95180 whole entry): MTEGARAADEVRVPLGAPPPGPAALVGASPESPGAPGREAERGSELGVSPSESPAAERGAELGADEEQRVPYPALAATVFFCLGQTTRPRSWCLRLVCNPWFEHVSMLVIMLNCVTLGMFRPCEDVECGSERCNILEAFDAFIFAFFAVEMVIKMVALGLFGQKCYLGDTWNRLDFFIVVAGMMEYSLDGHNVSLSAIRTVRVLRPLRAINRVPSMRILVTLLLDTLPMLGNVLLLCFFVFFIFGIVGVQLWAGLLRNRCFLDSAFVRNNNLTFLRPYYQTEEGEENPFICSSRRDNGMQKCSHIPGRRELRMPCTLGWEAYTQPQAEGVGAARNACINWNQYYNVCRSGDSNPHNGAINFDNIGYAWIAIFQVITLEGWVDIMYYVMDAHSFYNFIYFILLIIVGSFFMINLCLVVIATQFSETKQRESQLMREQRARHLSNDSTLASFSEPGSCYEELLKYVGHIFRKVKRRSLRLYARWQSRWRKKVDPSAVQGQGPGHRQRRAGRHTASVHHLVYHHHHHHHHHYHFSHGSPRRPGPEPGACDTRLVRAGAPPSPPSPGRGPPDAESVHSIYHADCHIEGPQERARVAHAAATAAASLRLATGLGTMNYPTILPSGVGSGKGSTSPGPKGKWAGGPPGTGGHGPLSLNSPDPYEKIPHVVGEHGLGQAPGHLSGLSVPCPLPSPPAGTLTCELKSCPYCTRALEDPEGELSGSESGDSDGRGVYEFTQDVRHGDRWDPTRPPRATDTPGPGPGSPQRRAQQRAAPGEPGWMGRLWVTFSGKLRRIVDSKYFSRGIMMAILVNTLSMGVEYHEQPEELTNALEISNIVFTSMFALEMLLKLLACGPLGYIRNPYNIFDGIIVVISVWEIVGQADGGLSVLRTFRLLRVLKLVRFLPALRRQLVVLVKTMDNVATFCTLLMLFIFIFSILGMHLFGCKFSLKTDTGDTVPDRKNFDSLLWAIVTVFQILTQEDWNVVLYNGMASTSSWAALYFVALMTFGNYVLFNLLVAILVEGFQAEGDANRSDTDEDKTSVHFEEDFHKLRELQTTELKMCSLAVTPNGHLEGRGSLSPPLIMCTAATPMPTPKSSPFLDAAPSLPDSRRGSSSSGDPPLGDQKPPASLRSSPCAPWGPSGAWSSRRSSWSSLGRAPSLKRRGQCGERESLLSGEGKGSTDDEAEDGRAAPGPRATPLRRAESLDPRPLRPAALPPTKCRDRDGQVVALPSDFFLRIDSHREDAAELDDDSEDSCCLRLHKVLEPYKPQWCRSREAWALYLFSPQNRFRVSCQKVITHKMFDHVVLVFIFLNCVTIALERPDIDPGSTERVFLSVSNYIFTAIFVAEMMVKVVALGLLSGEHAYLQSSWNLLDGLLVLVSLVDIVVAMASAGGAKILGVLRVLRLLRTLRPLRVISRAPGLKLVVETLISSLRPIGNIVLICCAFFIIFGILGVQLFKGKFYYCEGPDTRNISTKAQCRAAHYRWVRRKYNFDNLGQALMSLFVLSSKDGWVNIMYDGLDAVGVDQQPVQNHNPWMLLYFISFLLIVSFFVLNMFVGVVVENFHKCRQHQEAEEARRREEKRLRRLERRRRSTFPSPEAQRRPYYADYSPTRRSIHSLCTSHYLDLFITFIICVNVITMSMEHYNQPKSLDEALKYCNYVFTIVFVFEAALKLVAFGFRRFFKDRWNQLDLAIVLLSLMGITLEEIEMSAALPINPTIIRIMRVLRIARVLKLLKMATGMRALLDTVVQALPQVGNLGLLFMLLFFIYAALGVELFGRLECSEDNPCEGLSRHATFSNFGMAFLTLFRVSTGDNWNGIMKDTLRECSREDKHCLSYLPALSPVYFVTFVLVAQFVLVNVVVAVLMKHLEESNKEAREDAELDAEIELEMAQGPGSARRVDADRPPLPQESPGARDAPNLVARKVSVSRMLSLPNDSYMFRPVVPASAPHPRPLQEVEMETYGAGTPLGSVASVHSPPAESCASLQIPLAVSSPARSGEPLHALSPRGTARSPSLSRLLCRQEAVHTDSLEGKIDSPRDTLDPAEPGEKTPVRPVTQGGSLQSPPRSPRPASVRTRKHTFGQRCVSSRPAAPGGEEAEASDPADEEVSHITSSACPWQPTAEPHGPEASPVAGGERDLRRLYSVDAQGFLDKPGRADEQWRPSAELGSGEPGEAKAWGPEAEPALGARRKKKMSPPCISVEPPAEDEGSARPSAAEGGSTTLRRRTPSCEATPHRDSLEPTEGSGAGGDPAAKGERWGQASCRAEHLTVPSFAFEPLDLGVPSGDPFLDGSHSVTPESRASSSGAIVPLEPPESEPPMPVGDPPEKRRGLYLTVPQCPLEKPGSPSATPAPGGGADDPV
- measurement-description: Whole-cell patch clamp of T-type Ca2+ currents in Cav3.2-stable transfected HEK 293 cells
- Format: cell-based
- condition-info: 50 μM, HEK 293-Cav3.2 cells, vs non-treated cells

| compound | target-system | Effect on T-type Ca2+ current density |
| --- | --- | --- |
| O=C1C=C(NC(=O)c2cccc(C(F)(F)F)c2)CC(C(F)(F)F)C1 (stereo not shown) [RHB95] | human Cav3.2 (Homo sapiens, UniProt O95180) | significant reduction |
| Cc1cc(C)cc(C(=O)NC2=CC(=O)CC(C)C2)c1 (stereo not shown) [RHB59] | human Cav3.2 (Homo sapiens, UniProt O95180) | No inhibitory effect |
| O=C1C=C(NC(=O)c2cccc(C(F)(F)F)c2F)CC(C(F)(F)F)C1 (stereo not shown) [RHB103] | human Cav3.2 (Homo sapiens, UniProt O95180) | No inhibitory effect |
| O=C1C=C(NC(=O)c2cccc(OC(F)(F)F)c2)CC(C(F)(F)F)C1 (stereo not shown) [RHB121] | human Cav3.2 (Homo sapiens, UniProt O95180) | significant reduction |
